- experimental-target: RSV F protein of recombinant mKate-RSV, subtype A (strain A2) (Respiratory syncytial virus subtype A …, UniProt P03420 26-574)
- assay-summary: cell-based or functional assay
Exercise: for every item that follows, state its recorded Neut IC50 subtype A.

Some solved entries appear below for comparison.
binder	test-value
ADI-14467 (antibody, V domains shown) VH: EVQLLESGSEVKKPGTSVKVSCETSGYIFTNYAISWVRQAPGQGLEWLGWISGYNGQTYYAQKVQGRLTLTTDTSTMTAYMDLTSLRSDDTAIYYCVRDVPVISGASTMDYWGQGTLVTVSS VL: DIVMTQSPLSLPVTHGQPASISCRSSQSLVYSDGNTYLSWFQLRPGQSPRRLIYKVSNRDSGVPDRFSGSGSGTDFTLKISRVEAEDVGVYYCMQATQWPRTFGQGTKVEIK	0.06 µg/mL
ADI-14471 (antibody, V domains shown, full-length IgG (yeast-expressed); also called Antibody Number 34; Ab# 34) VH: QVQLVQSGAEVKKPGSSVKVSCKASGGTFGSYAVIWVRQAPGQGLEWMGHIIPVFGTINNAQKFQGRLTLSADESTGTVYMGLSSLRSDDTAVYFCATKRYCSDPSCHGLWYFDLWGRGTLVTVSS VL: DIRLTQSPLSLPVTPGEPASISCRSSQSLLDSDDGNTYLDWYLQKPGQSPQVLIYMLSYRASGVPDRFSGSGSGTDFTLKISRVEAEDVGVYYCMQRAEFPYTFGQGTKLEIK	0.096 µg/mL
ADI-14462 (antibody, V domains shown) VH: QVQLVQSGGGVVQPGGSLRLSCAAYGLTFRAYGMHWVRQAPGKGLEWVAVSWYDGTNEVYADSVKGRFRISRDDSRSTLYLQMNSLRGEDTAVYYCATERMWEENSSSFGWWGRGTLVTVSS VL: QAVLTQPASVSGSPGQSITISCTGSSSDVGGSNFVSWYQQHPGKAPKLMVYDVNHRPSGISNRFSGSKSGNTASLTISGLQAEDEADYYCTSYTSRSSYVFGSGTKVTVL	2.71 µg/mL

Each binder below has a reported value. Please supply its Neut IC50 subtype A.
1. ADI-14458 (antibody, V domains shown, full-length IgG (yeast-expressed); also called Antibody Number 21; Ab# 21) VH: QVQLVESGGGLVKPGGSLRLSCAASGFIFSNAWMSWVRQSPGKGLEWVGRIKTKTEGATTDHAAPLKGRFTISRDDSRNTLYLQMDSLTTEDTAVYFCTTGPPYSYFDSTGYSIVDYWGQGTLVTVSS VL: SYELTQPPAASGTPGQRVTISCSGSSSNIGSEYVLWYQQVPGTAPKLLIYNSHQRPSGVPDRISGSRSGTSASLAISGLRSEDEAHYYCASWDDSLSGPVFGGGTQLTVL
2. ADI-14516 (antibody, V domains shown) VH: QVQLVQSGVEVKKPGASVKVSCKTSGYTFSNYGVTWVRQAPGQGLEYMGWISAYNGNTNYAQNVQGRLTMTTDTSTSTGYMELRRLTSDDTAVYFCARDKGVTVAGSLLDYWGQGTLVTVSS VL: EIVMTQSPLSLPVTLGQPASISCRSSQSLEHSDGNTYLNWFQQRPGQSPRRLIYKVSNRDSGVPDRFSGSGSGTDFTLKINRVEAEDVGVYYCMESTHWPPYTFGQGTKVEIK

-- reply
1: 0.161 µg/mL; 2: 0.018 µg/mL

Each binder below has a reported value. Please supply its Neut IC50 subtype A.
1. ADI-14488 (antibody, V domains shown) VH: EVQLVESGGGLVQPGGSLKLSCTSSGLAFSGSAIHWVRQASGKGLEWVGRIRSKPNSYATEYAASVKGRFTISRDDSQNTAYLQMNSLKAEDTALYYCTLGYCSGDSCSSLRDYWGQGTLVTVSS VL: QSALIQPASVSGSPGQSITISCTGTSSDVGGYNYVSWYQQHPGKAPKLMIYDVSNRPSGVSNRFSGSKSGNTASLTISGLQAEDEADYYCSSYTSSSTLVFGGGTKVTVL
2. ADI-14475 (antibody, V domains shown, full-length IgG (yeast-expressed); also called Antibody Number 37; Ab# 37) VH: QVQLVQSGPALVKPTQTLTLTCTFSGFSLTTARMCVSWIRQPPGKALEWLARIDWDDDKSYSTSLKTRLTIAKDTSKNQVVLTMTNMGPADTATYYCVRTPIYASGGYYLSYFDSWGQGTLVTVSS VL: DIVMTQSPSSLSASVGDSVTITCRASQTIASYVNWYQHKPGQAPNLLIYAASILHSGVPSRFRGGGSGTDFTLTINSLQPEDFATYYCQQSYSTPYTFGQGTKVDIK
3. ADI-14446 (antibody, V domains shown, full-length IgG (yeast-expressed); also called Antibody Number 9; Ab# 9) VH: QVQLVQSGAEVKKPGSSVKVSCEASGDTFTSYAVIWVRQTPGQGLEFMGSIIPIFQTINYAPKFQGRVTLSADGSTSTVFMELRNLRSEDTAIYFCATKRYCTSPSCHGLWYFNLWGRGTMVTVSS VL: ETTLTQSPISLSVTPGEPASISCRSSKSLLDSDDGNTYLDWYLQKPGQSPQILIYMLSYRASGVPDRFSGSGSGTDFTLKISRVEAEDVGVYYCMQRIEYPYTFGQGTKVEIK

-- reply
1. > 10 µg/mL
2. 0.391 µg/mL
3. 0.091 µg/mL

Each binder below has a reported value. Please supply its Neut IC50 subtype A.
1. ADI-14474 (antibody, V domains shown) VH: QVQLVQSGPEVKKPGASVTISCQASGYIFNHYSITWVRQAPGQGTEWMGWISAYHGKTEYSGKFHGRVTLTTDTGTRTAFLELRDLTSDDTAIYYCARDVPVMGAAFLDYWGQGTLVTVSS VL: EIVLTQSPLSLPVTLGQPASISCRSGQSLEFSDGNTYLTWFQQRPGQSPRRLIFRGSYRDSGVPERFSGSGSGTSFTLTISRVEAEDVGIYFCMQGTHWPPTFGQGTKLEIK
2. ADI-14468 (antibody, V domains shown, full-length IgG (yeast-expressed); also called Antibody Number 31; Ab# 31) VH: QVQLVQSGPTLVRPTQTLTLTCTFSGFSLSTRGVGVGWVRQSPGKAPEFLVLAHWDDDKIYSPSLRRRLSVTKDVSKNQVVLALTNVDPVDTGTYFCVKSDLYDRGGYYLYYFDHWGQGTLVTVSS VL: DIRMTQSPSSLSASVGDRVTITCRASQTIASYVNWYLQRPGEAPKLLIYAASNLHSGAPPSLIGRGSGTDFTLTINTLQPEHFGTYFCQQTFSSPYTFGQGTKVEIK

-- reply
["0.019 µg/mL", "0.241 µg/mL"]
